// data source = the supplement of paper PMC9233669

# System: biotinyl-Leu-oxazolone
# methodDescription: self-aminoacylation, catalytic enhancement (BLO) (fold over background); higher = more active; k-Seq, kA / k0A0; sequences stand for … in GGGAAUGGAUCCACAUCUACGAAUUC…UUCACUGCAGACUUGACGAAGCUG
This sample holds only a part of the variants without activity.
self-aminoacylation class ranges: low band (below 1), middle band (1 to below 6), high band (6 or more)

constructSequence | targetOfAssay | groupLabel
CUUCACCCAGGUCAUCGGGUG [Fam2.2 aminoacylation ribozyme variant] | biotinyl-Leu-oxazolone | middle band
AAGUUUGCUAAUAGGUGCAAG [Fam3.1 aminoacylation ribozyme variant] | biotinyl-Leu-oxazolone | low band
AUGUAUGCUAAUAGUCGCAAG [Fam3.1 aminoacylation ribozyme variant] | biotinyl-Leu-oxazolone | middle band
AAGUUUGCUAAUAGGCCCAAG [Fam3.1 aminoacylation ribozyme variant] | biotinyl-Leu-oxazolone | low band

**Query** Given AUCCACCUAGGUCAUCCGGUG [Fam2.2 aminoacylation ribozyme variant] , name the class its self-aminoacylation places it in.
**Result** high band

**Query** Given CAACUUCAAACAAUCGGUAUG [Fam1A.1 aminoacylation ribozyme variant] , name the class its self-aminoacylation places it in.
**Result** middle band

**Query** Given AUUCGCCUAGAUCAUCGGGUG [Fam2.2 aminoacylation ribozyme variant] , name the class its self-aminoacylation places it in.
**Result** middle band

**Query** Given GUUCACCAAGGUCAUCGGGUG [Fam2.2 aminoacylation ribozyme variant] , name the class its self-aminoacylation places it in.
**Result** high band
